Study System: GluN2B glutamate receptors (Homo sapiens (Human), UniProt Q05586+Q13224)
Sequence (Q13224 27-1484, other chains not shown): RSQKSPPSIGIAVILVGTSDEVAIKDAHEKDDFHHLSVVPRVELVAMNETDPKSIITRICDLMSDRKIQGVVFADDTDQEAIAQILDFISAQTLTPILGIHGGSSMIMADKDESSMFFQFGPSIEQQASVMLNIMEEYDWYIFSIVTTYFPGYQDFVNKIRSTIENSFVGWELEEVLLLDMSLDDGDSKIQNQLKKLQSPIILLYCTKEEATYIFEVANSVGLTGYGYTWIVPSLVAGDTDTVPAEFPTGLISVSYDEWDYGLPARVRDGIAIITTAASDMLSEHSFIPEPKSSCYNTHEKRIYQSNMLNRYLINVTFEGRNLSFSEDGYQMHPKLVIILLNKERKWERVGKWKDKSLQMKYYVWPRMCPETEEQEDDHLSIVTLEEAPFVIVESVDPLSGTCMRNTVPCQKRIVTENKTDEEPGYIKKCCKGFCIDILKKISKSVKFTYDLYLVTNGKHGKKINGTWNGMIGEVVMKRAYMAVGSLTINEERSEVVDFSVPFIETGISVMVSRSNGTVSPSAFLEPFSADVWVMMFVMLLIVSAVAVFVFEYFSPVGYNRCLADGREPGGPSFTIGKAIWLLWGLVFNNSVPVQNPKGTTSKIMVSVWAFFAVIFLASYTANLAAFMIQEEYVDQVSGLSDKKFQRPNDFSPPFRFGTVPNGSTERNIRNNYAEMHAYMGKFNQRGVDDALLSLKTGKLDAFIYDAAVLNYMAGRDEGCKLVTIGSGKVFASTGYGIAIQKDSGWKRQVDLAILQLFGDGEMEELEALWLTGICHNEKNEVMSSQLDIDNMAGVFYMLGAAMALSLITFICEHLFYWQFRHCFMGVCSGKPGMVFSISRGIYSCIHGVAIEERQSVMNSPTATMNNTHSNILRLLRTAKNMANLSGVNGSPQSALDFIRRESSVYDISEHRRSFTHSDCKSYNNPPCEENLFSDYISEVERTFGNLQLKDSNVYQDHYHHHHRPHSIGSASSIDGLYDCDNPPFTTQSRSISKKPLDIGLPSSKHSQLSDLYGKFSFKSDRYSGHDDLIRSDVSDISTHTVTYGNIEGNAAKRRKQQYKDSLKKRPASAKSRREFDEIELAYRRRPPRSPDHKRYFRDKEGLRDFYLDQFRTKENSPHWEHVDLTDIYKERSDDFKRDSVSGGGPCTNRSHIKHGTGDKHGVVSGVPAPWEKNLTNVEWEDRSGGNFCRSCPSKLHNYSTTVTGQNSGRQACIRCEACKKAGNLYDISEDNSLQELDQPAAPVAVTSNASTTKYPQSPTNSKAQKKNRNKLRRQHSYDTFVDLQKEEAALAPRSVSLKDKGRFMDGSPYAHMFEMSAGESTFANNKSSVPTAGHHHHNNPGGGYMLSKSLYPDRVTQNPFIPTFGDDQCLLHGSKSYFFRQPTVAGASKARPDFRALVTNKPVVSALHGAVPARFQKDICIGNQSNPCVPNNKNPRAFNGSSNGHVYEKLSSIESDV
Assay Explanation: Whole-cell patch clamp of mammalian cells (Ionworks Barracuda), positive allosteric modulation, GluN2B
Format: cell-based
Measure: pEC50
Keep in mind that pEC50 stands for -log10 of concentration in molar terms.

As a guide, the following entries are already answered.
C[C@H](CCCC1(O)CC1)[C@H]1CC[C@H]2[C@@H]3CC[C@H]4C[C@](O)(C(F)(F)F)CC[C@]4(C)[C@H]3CC[C@]12C [Compound 4115]	6.94
CC[C@]1(O)CC[C@@]2(C)C(=CC[C@H]3[C@@H]4CC[C@H]([C@H](C)CC[C@H](O)c5ccccc5F)[C@@]4(C)CC[C@@H]32)C1 (single isomer, unassigned) [Compound 7281]	6.52
CC[C@H]1CC[C@@](O)(CC[C@@H](C)[C@H]2CC[C@H]3[C@@H]4CC[C@H]5C[C@](O)(C(F)(F)F)CC[C@]5(C)[C@H]4CC[C@]23C)CC1 [Compound 4475]	6.58
CC[C@]1(O)CC[C@H]2C(=CC[C@@H]3[C@@H]2CC[C@]2(C)[C@@H]([C@H](C)CCC[C@H](O)C(C)(C)C)CC[C@@H]32)C1 [Compound 10043]	5.97

Proceed to the following item.
*Q* Which pEC50 is reported for this compound? C[C@H](CCC1(O)CCC(F)(F)CC1)[C@H]1CC[C@H]2[C@@H]3CC[C@H]4C[C@](O)(C(F)(F)F)CC[C@]4(C)[C@H]3CC[C@]12C [Compound 8]
*A* 6.43

====

Study System: GlunN1/GluN2A glutamate receptors (Homo sapiens (Human), UniProt Q05586+Q12879)
Sequence (Q12879 23-1464, other chains not shown): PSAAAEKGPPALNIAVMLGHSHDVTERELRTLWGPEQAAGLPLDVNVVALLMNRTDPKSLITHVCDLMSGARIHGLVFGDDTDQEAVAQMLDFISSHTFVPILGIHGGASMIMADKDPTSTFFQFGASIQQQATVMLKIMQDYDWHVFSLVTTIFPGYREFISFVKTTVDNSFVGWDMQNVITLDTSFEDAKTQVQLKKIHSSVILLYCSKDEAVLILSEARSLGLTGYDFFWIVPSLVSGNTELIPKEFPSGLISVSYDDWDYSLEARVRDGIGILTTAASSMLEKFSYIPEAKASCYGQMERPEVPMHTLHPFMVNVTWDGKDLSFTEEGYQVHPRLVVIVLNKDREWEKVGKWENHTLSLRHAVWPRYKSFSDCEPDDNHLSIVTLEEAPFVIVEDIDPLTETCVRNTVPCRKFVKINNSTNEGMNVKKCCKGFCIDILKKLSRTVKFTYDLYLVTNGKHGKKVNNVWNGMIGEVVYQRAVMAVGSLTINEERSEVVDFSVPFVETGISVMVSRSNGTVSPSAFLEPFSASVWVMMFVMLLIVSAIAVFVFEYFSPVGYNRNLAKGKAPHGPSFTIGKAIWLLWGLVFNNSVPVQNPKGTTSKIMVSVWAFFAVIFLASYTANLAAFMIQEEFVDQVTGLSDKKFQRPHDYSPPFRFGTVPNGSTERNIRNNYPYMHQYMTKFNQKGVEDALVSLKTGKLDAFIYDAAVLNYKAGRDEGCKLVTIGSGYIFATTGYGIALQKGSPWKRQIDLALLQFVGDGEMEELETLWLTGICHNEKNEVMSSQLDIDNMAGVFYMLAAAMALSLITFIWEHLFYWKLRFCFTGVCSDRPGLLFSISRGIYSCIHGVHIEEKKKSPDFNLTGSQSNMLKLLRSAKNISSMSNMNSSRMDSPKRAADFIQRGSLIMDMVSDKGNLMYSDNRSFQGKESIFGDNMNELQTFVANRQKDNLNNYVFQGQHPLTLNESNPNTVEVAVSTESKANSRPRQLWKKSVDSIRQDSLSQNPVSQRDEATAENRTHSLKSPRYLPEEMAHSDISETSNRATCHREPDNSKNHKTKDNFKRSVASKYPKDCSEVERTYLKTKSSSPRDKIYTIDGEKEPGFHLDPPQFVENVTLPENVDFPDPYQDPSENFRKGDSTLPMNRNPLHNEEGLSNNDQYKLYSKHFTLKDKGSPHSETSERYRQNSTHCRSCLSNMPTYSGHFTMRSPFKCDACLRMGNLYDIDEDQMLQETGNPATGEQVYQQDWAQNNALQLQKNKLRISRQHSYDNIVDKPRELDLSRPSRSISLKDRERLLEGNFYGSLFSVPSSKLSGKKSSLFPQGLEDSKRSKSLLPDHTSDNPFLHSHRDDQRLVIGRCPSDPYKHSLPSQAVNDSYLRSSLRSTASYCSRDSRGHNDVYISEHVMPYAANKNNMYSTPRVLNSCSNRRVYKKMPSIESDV
Assay Explanation: Whole-cell patch clamp of mammalian cells (Ionworks Barracuda), positive allosteric modulation, GluN1/GluN2A
Assay type: cell-based
Condition Parameters: HEK293 cells; % potentiation of current elicited with EC20 L-glutamate and 30 μM glycine; read-out: Avg Emax 2A (%)
Measure: Emax (%)
Reply with just the number (in %).

As a guide, the following entries are already answered.
CC[C@]1(O)CC[C@@]2(C)C(=CC[C@H]3[C@@H]4CC[C@H]([C@H](C)CC[C@@H](O)c5ccccc5C#N)[C@@]4(C)CC[C@@H]32)C1	150
CC[C@]1(O)CC[C@H]2C(=CC[C@@H]3[C@@H]2CC[C@]2(C)[C@@H]([C@H](C)CCC[C@@H](O)C(C)C)CC[C@@H]32)C1	146
CC[C@]1(O)CC[C@@]2(C)C(=CC[C@H]3[C@@H]4CC[C@H]([C@H](C)CC[C@H](O)c5ccccc5C#N)[C@@]4(C)CC[C@@H]32)C1	37.5
CC[C@]1(O)CC[C@H]2[C@@H](CC[C@@H]3[C@@H]2CC[C@]2(C)[C@@H]([C@H](C)CCC4(O)CC4)CC[C@@H]32)C1	136
CC(C)[C@H](O)CC[C@@H](C)[C@H]1CC[C@H]2[C@@H]3CC[C@H]4C[C@@](C)(O)CC[C@@H]4[C@H]3CC[C@]12C	279

*Q* Which Emax is reported for this compound? C[C@H](O)CCC[C@@H](C)[C@H]1CC[C@H]2[C@@H]3CC[C@H]4C[C@](O)(C(F)(F)F)CC[C@]4(C)[C@H]3CC[C@]12C
*A* 403

*Q* Now consider CC[C@]1(O)CC[C@H]2C(=CC[C@@H]3[C@@H]2CC[C@]2(C)[C@@H]([C@H](C)CCC[C@H](O)C(C)(C)C)CC[C@@H]32)C1 and answer again.
*A* 146

*Q* Now consider CC[C@]1(O)CC[C@H]2C(=CC[C@@H]3[C@@H]2CC[C@]2(C)[C@@H]([C@H](C)CCC4(O)CCC(F)(F)CC4)CC[C@@H]32)C1 and answer again.
*A* 117

*Q* Now consider C[C@H](CC[C@]1(O)CCOC1)[C@H]1CC[C@H]2[C@@H]3CC[C@H]4C[C@](O)(C(F)(F)F)CC[C@]4(C)[C@H]3CC[C@]12C and answer again.
*A* 113

*Q* Now consider C[C@H](CCC(O)C1CCOCC1)[C@H]1CC[C@H]2[C@@H]3CC[C@H]4C[C@](O)(C(F)(F)F)CC[C@]4(C)[C@H]3CC[C@]12C (some centres unmarked) and answer again.
*A* 181

*Q* Now consider CC[C@]1(O)CC[C@@]2(C)C(=CC[C@H]3[C@@H]4CC[C@H]([C@H](C)CC[C@@H](O)c5cccc(C#N)c5)[C@@]4(C)CC[C@@H]32)C1 and answer again.
*A* 327

*Q* Now consider C[C@H](CCC(O)c1ccccc1)[C@H]1CC[C@H]2[C@@H]3CC=C4C[C@@](C)(O)CC[C@]4(C)[C@H]3CC[C@]12C (some centres unmarked) and answer again.
*A* 59.6
